Recorded Max I amplitude for the following compounds
system: TRPV1 (Rattus norvegicus)
Construct: FLAG; expressed in transfected cells
experimental protocol: Whole-cell patch clamp of TRPV1 currents in HEK293 cells overexpressing TRPV1 (HEK293-V1)
Format: cell-based
condition details: dose 150 micromolar; 120 s; Ca 1 mM external, unbuffered internal calcium
Experimental: HEK TRexTRPV1 were cultured in DMEM, 10% Fetal Bovine Serum, 2 mM Lglutamine, 10 μg/ml Blasticidin (Calbiochem, San Diego Calif.), 400 μg/ml Zeocin (InvivoGen, San Diego Calif.), where indicated transgene expression was induced using 1 μg/ml Tetracycline for 16-24 hrs. […] This technique is used to study ionic currents from HEK293-V1. The voltage across the cell membrane is controlled and the ionic currents associated with changes in voltage are measured. […]
Write down the numeric answer in nA and omit the unit.

# annotated cases, reported Max I amplitude shown
compound: C=C(C)[C@@H]1CCC(C)=C[C@H]1c1c(O)cc(CCCCC)cc1O [CBD, Cannabidiol]
reported value: 3.5

compound: CCCCCc1cc(O)c(C/C=C(\C)CCC=C(C)C)c(O)c1 [CBG, Cannabigerol]
reported value: 0.9

compound: C=C(C)[C@@H]1CCC(C)=C[C@H]1c1c(O)cc(CCC)cc1O [CBDV, Cannabidivarin]
reported value: 3.9

Would you kindly look at the next entry?
Exercise: Look up Max I amplitude: CCCCCc1cc(O)c2c(c1)OC(C)(C)c1ccc(C)cc1-2 [CBN, Cannabinol]
Solution: 1.8

###

// Time to max lookup, one value per entry
system: TRPV1 (Rattus norvegicus, UniProt O35433)
Construct: FLAG; expressed in transfected cells
Sequence (O35433 whole entry): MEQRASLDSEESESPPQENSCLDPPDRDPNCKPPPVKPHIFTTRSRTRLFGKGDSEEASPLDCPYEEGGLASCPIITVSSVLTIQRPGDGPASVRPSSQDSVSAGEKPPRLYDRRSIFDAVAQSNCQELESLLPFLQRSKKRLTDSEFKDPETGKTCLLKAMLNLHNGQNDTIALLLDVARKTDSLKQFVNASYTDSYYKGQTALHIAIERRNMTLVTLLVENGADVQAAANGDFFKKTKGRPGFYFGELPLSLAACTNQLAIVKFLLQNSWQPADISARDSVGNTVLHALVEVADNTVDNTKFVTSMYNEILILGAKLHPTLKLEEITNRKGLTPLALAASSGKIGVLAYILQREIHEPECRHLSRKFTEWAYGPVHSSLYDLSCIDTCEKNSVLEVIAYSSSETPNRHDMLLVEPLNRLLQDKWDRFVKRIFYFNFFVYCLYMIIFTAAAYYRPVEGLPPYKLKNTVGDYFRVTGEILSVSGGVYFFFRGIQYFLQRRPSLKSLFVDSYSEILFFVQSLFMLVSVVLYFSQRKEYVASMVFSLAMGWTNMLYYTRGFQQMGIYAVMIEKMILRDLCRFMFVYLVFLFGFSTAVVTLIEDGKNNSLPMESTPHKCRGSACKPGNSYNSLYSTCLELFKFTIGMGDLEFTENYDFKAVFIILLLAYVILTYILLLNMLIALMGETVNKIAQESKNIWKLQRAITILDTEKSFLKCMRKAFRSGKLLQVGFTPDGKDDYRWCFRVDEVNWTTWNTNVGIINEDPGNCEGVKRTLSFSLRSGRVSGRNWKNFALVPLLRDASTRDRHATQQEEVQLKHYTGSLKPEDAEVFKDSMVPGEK
experimental protocol: Whole-cell patch clamp of TRPV1 currents in HEK293 cells overexpressing TRPV1 (HEK293-V1)
Format: cell-based
condition details: dose 50 micromolar
Answer in s, number only, no unit symbol.

// solved cases for Time to max follow
smiles code: CCCCCc1cc(O)c(C/C=C(\C)CCC=C(C)C)c(O)c1
Time to max, s: 96
--
smiles code: CCCCCc1cc(O)c2c(c1)OC(C)(C)c1ccc(C)cc1-2
Time to max, s: 120
--
smiles code: C=C(C)[C@@H]1CCC(C)=C[C@H]1c1c(O)cc(CCCCC)cc1O
Time to max, s: 130

Alright, here's another compound for you.
Exercise: Hi! What's the reported Time to max for C=C(C)[C@@H]1CCC(C)=C[C@H]1c1c(O)cc(CCC)cc1O on TRPV1 (Rattus norvegicus, UniProt O35433)?
Solution: 82

###

system: TRPV1 (Rattus norvegicus, UniProt O35433)
Construct: FLAG; expressed in transfected cells
experimental protocol: Whole-cell patch clamp of TRPV1 currents in HEK293 cells overexpressing TRPV1 (HEK293-V1)
Format: cell-based
recorded metric: pEC50
The read-out pEC50 is expressed as -log10 of concentration in moles per litre.

smiles code: C=C(C)[C@@H]1CCC(C)=C[C@H]1c1c(O)cc(CCCCC)cc1O
system: TRPV1 (Rattus norvegicus, UniProt O35433)
pEC50: 4.52

Next:
Exercise: What does the record list as pEC50 for CCCCCc1cc(O)c2c(c1)OC(C)(C)c1ccc(C)cc1-2 ?
Solution: 4.44

###

system: TRPV1 (Rattus norvegicus, UniProt O35433)
Construct: FLAG; expressed in transfected cells
experimental protocol: Whole-cell patch clamp of TRPV1 currents in HEK293 cells overexpressing TRPV1 (HEK293-V1)
Type: cell-based
condition details: dose 10 micromolar; 120 s; Ca 1 mM external, unbuffered internal calcium
recorded metric: Max I amplitude (nA)
Reply numerically in nA, unit not repeated.

Consider the reported Max I amplitude for these compounds:
compound: CCCCCc1cc(O)c(C/C=C(\C)CCC=C(C)C)c(O)c1 [CBG, Cannabigerol]
unit tag: nA
Max I amplitude: 0.2

compound: C=C(C)[C@@H]1CCC(C)=C[C@H]1c1c(O)cc(CCC)cc1O [CBDV, Cannabidivarin]
unit tag: nA
Max I amplitude: 0.5

compound: CCCCCc1cc(O)c2c(c1)OC(C)(C)c1ccc(C)cc1-2 [CBN, Cannabinol]
unit tag: nA
Max I amplitude: 0.4

Pending compound:
Exercise: Which value of Max I amplitude has been reported for C=C(C)[C@@H]1CCC(C)=C[C@H]1c1c(O)cc(CCCCC)cc1O [CBD, Cannabidiol] in the records?
Solution: 0.8
